Target: T1, human DNMT1 RFTS domain, residues 351–600 (human, UniProt P26358 351-600)
T1 chain: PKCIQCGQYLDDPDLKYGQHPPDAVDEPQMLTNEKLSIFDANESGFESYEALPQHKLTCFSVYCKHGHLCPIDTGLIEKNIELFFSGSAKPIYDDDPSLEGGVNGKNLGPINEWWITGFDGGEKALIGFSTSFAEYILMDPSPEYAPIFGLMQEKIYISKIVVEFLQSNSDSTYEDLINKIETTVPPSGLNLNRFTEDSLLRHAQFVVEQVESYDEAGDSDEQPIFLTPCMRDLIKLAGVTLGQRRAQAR
Assay: ITC
RECORDED_METRIC: Kd (µM)
Give the value in µM but do not write µM after it.

Entry under review: VRTKADSVPGTYRKVVAARAPRKVLGSST (unmodified (no ubiquitin); taken as wild-type K15/K24, since the text describes K15C/K24C only for preparing the ubiquitylated analogs) [PAF15_(2-30) unmodified] . Reported Kd?
6
